target: Histone deacetylase 1/2/3/6 (Homo sapiens, UniProt Q13547+O15379+Q9UBN7+Q92769); assay: Inhibition of HDAC1/2/3/6 in human Cal27 cells using Boc-Lys(epsilon-Ac)-AMC as substrate preincubated for 18 hrs followed by substrate addition measured after 3 hrs by fluorescence assay; format: cell-based
quantity: IC50 (nM)
Answers are plain numbers, in nM.

INSERT INTO assay_data (compound, quantity, numeric_value) VALUES
  ('CN(C)c1ccc(C(=O)N(CCCCCC(=O)NO)CC(=O)NC2CCCCC2)cc1', 'IC50', 1400);

Below is a list of compounds. For each, state its recorded IC50.
1. CN(C)c1ccc(C(=O)N(CCCCCC(=O)NO)CC(=O)NC(C)(C)C)cc1
2. O=C(CCCCCN(C(=O)c1ccccc1)C(C(=O)NC1CCCCC1)c1ccccc1)NO (stereo not given)
3. Cc1ccc(C(C(=O)NC2CCCCC2)N(CCCCCC(=O)NO)C(=O)c2ccccc2)cc1 (stereo not given)

1780
2060
2940

Below is a list of compounds. For each, state its recorded IC50.
1. O=C(CCCCCN(CC(=O)NC1CCCCC1)C(=O)c1cccc2ccccc12)NO
2. O=C(CCCCCN(C(=O)c1ccccc1)C1(C(=O)NC2CCCCC2)CCCCC1)NO
3. CC(C)(C)NC(=O)CN(CCCCCC(=O)NO)C(=O)c1ccccc1

1: 750; 2: 14300; 3: 6850

* * *

Hi there, I'd appreciate the recorded log10 IC50 for every entry that follows.
molecular target: Histone deacetylase 1/2/3/6 (Homo sapiens, UniProt Q13547+O15379+Q9UBN7+Q92769); experiment: Inhibition of HDAC1/2/3/6 in human A2780cisR cells using Boc-Lys(epsilon-Ac)-AMC as substrate preincubated for 18 hrs followed by substrate addition measured after 3 hrs by fluorescence assay; type: cell-based
Hi team, quick reminder: these entries are log10 of IC50 (nM).

Observe how each entry below is paired with its result.
INSERT INTO results (compound, numeric_value) VALUES
  ('O=C(CCCCCN(C(=O)c1ccccc1)C1(C(=O)NC2CCCCC2)CCCCC1)NO', 4.00),
  ('Cc1ccc(C(C(=O)NC2CCCCC2)N(CCCCCC(=O)NO)C(=O)c2ccccc2)cc1 (stereo not given)', 3.56),
  ('CN(C)c1ccc(C(=O)N(CCCCCC(=O)NO)CC(=O)NCc2ccccc2)cc1', 2.51);

Below is a list of compounds. For each, state its recorded log10 IC50.
1. CN(C)c1ccc(C(=O)N(CCCCCC(=O)NO)C(C)(C)C(=O)NC2CCCCC2)cc1
2. O=C(CCCCCN(C(=O)c1ccccc1)C(C(=O)NC1CCCCC1)c1ccccc1)NO (stereo not given)

[4.49, 3.47]

* * *

Hi there, I'd appreciate the recorded IC50 for every entry that follows.
molecular target: Histone deacetylase 1/2/3/6 (Homo sapiens, UniProt Q13547+O15379+Q9UBN7+Q92769); test: Inhibition of HDAC1/2/3/6 in human A2780 cells using Boc-Lys(epsilon-Ac)-AMC as substrate preincubated for 18 hrs followed by substrate addition measured after 3 hrs by fluorescence assay; assay type: cell-based
Give bare numbers, in nM.

INSERT INTO assay_data (test_smiles, measurement_units, numeric_value) VALUES
  ('CC(C)(C)NC(=O)CN(CCCCCC(=O)NO)C(=O)c1ccccc1', 'nM', 8980),
  ('O=C(CCCCCN(CC(=O)NC1CCCCC1)C(=O)c1cccc2ccccc12)NO', 'nM', 960),
  ('CN(C)c1ccc(C(=O)N(CCCCCC(=O)NO)CC(=O)NC2CCCCC2)cc1', 'nM', 1420),
  ('CC(C)CNC(=O)CN(CCCCCC(=O)NO)C(=O)c1ccc(N(C)C)cc1', 'nM', 1090),
  ('CN(C)c1ccc(C(=O)N(CCCCCC(=O)NO)C(C)(C)C(=O)NC2CCCCC2)cc1', 'nM', 24500);

Let's switch to this compound now.
Would you kindly share the measured IC50 for Cc1cc(C)cc(C(=O)N(CCCCCC(=O)NO)CC(=O)NCc2ccccc2)c1 ?
630
